Cited source: patent US9937192B2

- Test Details: Aqueous Solubility Study
- Format: physicochemical
- Assay Conditions: water, aqueous buffer, thermodynamic from solid, crystalline solid form, pH >3.0, 96 hours at room temperature
Parameter Measured: solubility at 96 h

Bench note: what solubility at 96 h did `CCNC(=O)Nc1nc2cc(-c3cnc(C(C)(C)O)nc3)c(F)c([C@H]3CCCO3)c2[nH]1` show?
< 1 µg/mL
